Data origin: PubChem BioAssay (NCI)

# System: OVCAR-4 ovarian
# method.summary: NCI tumour cell line growth inhibition, 48 h

molecule | tested.system | TGI
Cc1cc2c(cc1Cl)SC(NNc1ccc([N+](=O)[O-])cc1)=NS2(=O)=O | OVCAR-4 ovarian | > 10 µM
Nc1nc(N)c2nc(CNc3ccc(C(=O)NC(CCCCNC(=O)c4ccccc4C(=O)O)C(=O)O)cc3)cnc2n1 (centres undefined) | OVCAR-4 ovarian | > 100 µM
CC12Oc3ccc4ccccc4c3CC1Cc1c(ccc3ccccc13)O2 (centres undefined) | OVCAR-4 ovarian | 90.6 µM
C/C(=N\Nc1nc2ccccc2s1)c1cc(C)ncn1 | OVCAR-4 ovarian | > 39.8 µM
CCOC(=O)c1c(N2CCCC2)[nH]c(=O)c(C(c2cccs2)c2c(O)c(C(=O)OCC)c(N3CCCC3)[nH]c2=O)c1O | OVCAR-4 ovarian | > 100 µM
COc1ccc2nc(NC(=O)C(=O)C(C#N)c3ccc(Cl)c(Cl)c3)sc2c1 (centres undefined) | OVCAR-4 ovarian | > 100 µM
COP(=O)(OC)/C(=C\c1cn(C(c2ccccc2)(c2ccccc2)c2ccccc2)cn1)NC(C)=O | OVCAR-4 ovarian | > 100 µM
O=C(CSC1=NNC2(C(=O)N1)c1ccccc1-c1ccccc12)NC(=S)Nc1ccccc1 | OVCAR-4 ovarian | > 10 µM
COc1ccc(N=[N+]([O-])c2ccc(OC)cc2)cc1 | OVCAR-4 ovarian | > 100 µM

====

Reported values of TGI for individual entries
# Test system: HS 578T breast
# method.summary: NCI tumour cell line growth inhibition, 48 h
property.label: TGI (µM)

compound | tested.system | unit.string | relation.symbol | data.value
COc1cc(/C=C/C(=O)c2cccnc2Nc2ccc(F)cc2)cc(OC)c1OC | HS 578T breast | µM | = | 95.2
CC(=O)c1sc(=N)n(-c2c(C)cccc2C)c1C | HS 578T breast | µM | > | 100
COC(=O)c1ccc(NCc2cc(O)ccc2O)cc1 | HS 578T breast | µM | = | 18.5
N#CCCN(CCN(CCC#N)C(=O)Nc1ccccc1)C(=O)Nc1ccccc1 | HS 578T breast | µM | > | 100
CCN(CC)CCO/N=C1/C=C2CCC3C(CC[C@@]4(C)C3CC[C@]4(C)O)[C@@]2(C)CC1 (stereo not given in full) | HS 578T breast | µM | = | 33.7
CN(C)Cc1cc(N=Nc2ccc(Cl)cc2)ccc1OC(=O)c1ccccc1 | HS 578T breast | µM | = | 46.9
C/C=C(\C)C(=O)N[C@H]1C(O)C[C@]2(C)C3CC[C@@]4(C)C(CC[C@@H]4C(C)N(C)C)C3CCC2C1O (stereo not given in full) | HS 578T breast | µM | = | 29.6
O=S(=O)(NCCNc1nccc(-c2c(-c3ccc(F)cc3)nc3sccn23)n1)c1ccccc1 | HS 578T breast | µM | > | 100
C=C(C)C12CC3CC/C(=N/O)C(C1)C3(N1CCOCC1)C/C2=N/O (stereo not given) | HS 578T breast | µM | > | 100
O=C(Nc1ccc(Cl)c(Cl)c1)OCCN1c2ccccc2Sc2ccccc21 | HS 578T breast | µM | > | 10

====

# Tested on: DU-145 prostate
# method.summary: NCI tumour cell line growth inhibition, 48 h
property.label: TGI

molecule | property.label | data.value
CC(C)CCN[C@@H]1CCc2cc(O)c(N3CC(=O)NS3(=O)=O)c(F)c2C1 | TGI | > 100 µM
c1ccc(CNc2nc(Nc3ccccc3)nc3ccccc23)cc1 | TGI | 10.7 µM
CN1C(Cl)=NS(=O)(=O)c2ccccc21 | TGI | > 100 µM
Cc1cc2c(cc1N)C(C)C1(CCC(=O)N2Cc2ccccc2)OCCO1 (centres undefined) | TGI | > 100 µM
O=c1oc2ccc([N+](=O)[O-])cc2c(Nc2ccc3c(c2)S(=O)(=O)c2ccccc2O3)c1[N+](=O)[O-] | TGI | > 100 µM
CN(/N=N/c1nc(OCc2ccccc2)c2[nH]cnc2n1)C(=O)Oc1ccc([N+](=O)[O-])cc1 | TGI | 19.5 µM
CCN(CC)CCN(C(=O)c1ccc(F)cc1)c1ccccc1N | TGI | > 10 µM
COc1ccc(N2C(=O)CC(c3c[nH]c4ncccc34)C2=O)cc1 (centres undefined) | TGI | > 100 µM
CC1=NN(C(=O)CC(=O)Nc2cccc(Cl)c2)C(=O)C1N=Nc1ccc(C(=O)O)cc1 (centres undefined) | TGI | > 100 µM
